Origin of the recorded values: patent US20240108738A1

- studyTarget: T1, Human NKp46 Fc tag (Acro Biosystems, NC1-H5257) (human, UniProt O76036 22-255)
- T1 construct: bought; also called Fc-tagged human NKp46
- T1 sequence (O76036 22-255 limits assumed): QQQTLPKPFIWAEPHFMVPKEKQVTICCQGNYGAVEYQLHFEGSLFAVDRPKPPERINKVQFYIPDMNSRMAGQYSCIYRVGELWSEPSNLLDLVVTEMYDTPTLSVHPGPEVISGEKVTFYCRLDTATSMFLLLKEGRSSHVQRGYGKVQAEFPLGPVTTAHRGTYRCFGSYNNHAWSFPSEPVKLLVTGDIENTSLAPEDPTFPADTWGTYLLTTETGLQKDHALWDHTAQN
- protocolSummary: SPR Method 1 and/or 2
Numbered stars: 1 amine (or outer) side, 2 acyl side, 3 side chain; on linkers, the order of the positions; unused ones are H or OH. Bridge positions count the residues as written; N and C are the ends. Square brackets hold non-standard residues; d marks the D form. Ends that are not written are not given here. TATA = O=C(CC[*:1])N1CN(C(=O)CC[*:2])CN(C(=O)CC[*:3])C1; aIle = CC[C@@H](C)[C@H](N)C(=O)O; Cba = N[C@@H](CC1CCC1)C(=O)O
observable: Kd (nM)
One number for each entry, in nM.

Give measured Kd for every item shown.
1. ACNLQAPCMLTGK[aIle]CA-NH2 (linker 2-8-15 via TATA; N-terminus assumed; SMILES CC[C@@H](C)[C@@H]1NC(=O)[C@H](CCCCN)NC(=O)CNC(=O)[C@H]([C@@H](C)O)NC(=O)[C@H](CC(C)C)NC(=O)[C@H](CCSC)NC(=O)[C@@H]2CSCCC(=O)N3CN(CN(C3)C(=O)CCSC[C@@H](C(=O)N[C@@H](C)C(N)=O)NC1=O)C(=O)CCSC[C@H](NC(=O)[C@H](C)N)C(=O)N[C@@H](CC(N)=O)C(=O)N[C@@H](CC(C)C)C(=O)N[C@@H](CCC(N)=O)C(=O)N[C@@H](C)C(=O)N1CCC[C@H]1C(=O)N2, scaffold TATA) [BCY19706]
2. ACNLQAPC[Cba]LTGKVCA-NH2 (linker 2-8-15 via TATA; N-terminus assumed; SMILES CC(C)C[C@@H]1NC(=O)[C@H](CC(N)=O)NC(=O)[C@@H](NC(=O)[C@H](C)N)CSCCC(=O)N2CN3CN(C2)C(=O)CCSC[C@H](NC(=O)[C@@H]2CCCN2C(=O)[C@H](C)NC(=O)[C@H](CCC(N)=O)NC1=O)C(=O)N[C@@H](CC1CCC1)C(=O)N[C@@H](CC(C)C)C(=O)N[C@@H]([C@@H](C)O)C(=O)NCC(=O)N[C@@H](CCCCN)C(=O)N[C@@H](C(C)C)C(=O)N[C@H](C(=O)N[C@@H](C)C(N)=O)CSCCC3=O, scaffold TATA) [BCY18315]
3. ACNLQAPCM[Cba]TGKVCA-NH2 (linker 2-8-15 via TATA, scaffold TATA) [BCY18319]

1200
878
991
